B1: Gamma-crystallin C, residues 4 to 79; numbered along this chain, P07315 (parent)
chain: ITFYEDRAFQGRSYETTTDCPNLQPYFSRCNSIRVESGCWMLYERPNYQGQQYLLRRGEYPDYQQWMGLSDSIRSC

Variants of: B1
Experimental Details: abundance fitness (aPCA) (normalised: wild type 0, dead -1); higher = more abundant; growth selection in yeast, the domain comes from the species named
Assay Context: Homo sapiens
Parameter: abundance fitness

Below are worked cases with known answers.
Sequence Data | abundance fitness
ITFYEDRAFQGRSYETTTDCPNLQPYFSRCNSIRVESGCWMLYERPNYQGQQYLLRRGEYPDYQQWMGLSDKIRSC [S72K] | 0.058
ITFYEDRGFQGRSYETTTDCPNLQPYFSRCNSIRVESGCWMLYERPNYQGQQYLLRRGEYPDYQQWMGLSDSIRSC [A8G] | 0.053
ITFYEDRAFQGRSYETTTDCPNLQPYFSRCNSIRVESGCWMEYERPNYQGQQYLLRRGEYPDYQQWMGLSDSIRSC [L42E] | -1.16
ITFYEDRAFQGRSYETTTDCPNLQPYFSRCNSIRVESLCWMLYERPNYQGQQYLLRRGEYPDYQQWMGLSDSIRSC [G38L] | -0.177
ITFYEDRAFQGRSYETTTDCPNLQPYFSRCNDIRVESGCWMLYERPNYQGQQYLLRRGEYPDYQQWMGLSDSIRSC [S32D] | -0.812

Prompt: Entry under review: ITFYEDRAFQGRSYETTTDCPNLQPYFSRCNSIRVESGCWMLYERPNYQGQQYLLRRGEYPDGQQWMGLSDSIRSC [Y63G] . Reported abundance fitness?
Response: -0.041

Prompt: Entry under review: ITFYEDRAFQGRSYETTTDCPNLQPYFSRCNSIRVESGCWMLYERPNYQGQQYLLRRGEYPQYQQWMGLSDSIRSC [D62Q] . Reported abundance fitness?
Response: -0.062

Prompt: Entry under review: ITFYEDRAFQGRSYETTTDCPNLQPYFSRCNSIRVESGCWMLYERPNYQGQQYLLRRGEYPDYHQWMGLSDSIRSC [Q64H] . Reported abundance fitness?
Response: 0.155

Prompt: Entry under review: ITFYEDRAFQGRSYETTTDCPNLQPYFSRCNSIRVESGCWMLYERPNYQGQQYLLRRGEYPYYQQWMGLSDSIRSC [D62Y] . Reported abundance fitness?
Response: -0.037

Prompt: Entry under review: ITFYEDRAFQGRSYETTTDCPNLQPYFSRCNSIRVESGCWMLYEQPNYQGQQYLLRRGEYPDYQQWMGLSDSIRSC [R45Q] . Reported abundance fitness?
Response: -0.13
